- MEASURED ON: SARS-COV-2 spike, Gamma variant (P.1) (SARS-COV-2, UniProt P0DTC2 14-1273)
- EXPERIMENT: cell-based or functional assay
VALUE TYPE: EC50, neutralization of spike pseudotyped virus (nM)

INSERT INTO measurements (binder, result_units, test_result) VALUES
  ('AP1C3 Nb-huFc (Fc fusion) EVQLQASGGGFVQPGGSLRLSCAASGRTYRGYSMGWFRQAPGKEREFVSAISSWSDDWTAYADSVKGRFTISRDNSKNTVYLQMNSLRAEDTATYYCAWQYIDEIQYYWGQGTQVTVSS', 'nM', 1.07),
  ('AP1B6 Nb-huFc (Fc fusion) EVQLQASGGGFVQPGGSLRLSCAASGSAFQIYAMGWFRQAPGKEREFVSAISSTDSETDHYADSVKGRFTISRDNSKNTVYLQMNSLRAEDTATYYCAVNGFDYAHSKAGPQVYWGQGTQVTVSS', 'nM', 0.26),
  ('AP1D4 Nb-huFc (Fc fusion) EVQLQASGGGFVQPGGSLRLSCAASGHTFDAHRMGWFRQAPGKEREFVSAISSWGQSSTYYADSVKGRFTISRDNSKNTVYLQMNSLRAEDTATYYCAQTDEGNQYVYWGQGTQVTVSS', 'nM', 13.5),
  ('BP2A6 Nb-huFc (Fc fusion) EVQLQASGGGFVQPGGSLRLSCAASGQTFSHYIMGWFRQAPGKEREFVSAISAGQGHATYYADSVKGRFTISRDNSKNTVYLQMNSLRAEDTATYYCAKYQDTIAPLYWGQGTQVTVSS', 'nM', 0.63),
  ('BP1A10 Nb-huFc (Fc fusion) EVQLQASGGGFVQPGGSLRLSCAASGQPSDRYIMGWFRQAPGKEREFVSAISQGAANKTAYADSVKGRFTISRDNSKNTVYLQMNSLRAEDTATYYCATHFNWQNYSYWGQGTQVTVSS', 'nM', 3.95),
  ('AP1A5 Nb-huFc (Fc fusion) EVQLQASGGGFVQPGGSLRLSCAASGSTASHYTMGWFRQAPGKEREFVSAISSGRDHAKQYADSVKGRFTISRDNSKNTVYLQMNSLRAEDTATYYCAYEEINATQKDTLYWGQGTQVTVSS', 'nM', 533);
